These compounds were tested on UniProt O42275; pIC50 is the recorded read-out.
Sequence (O42275 whole entry): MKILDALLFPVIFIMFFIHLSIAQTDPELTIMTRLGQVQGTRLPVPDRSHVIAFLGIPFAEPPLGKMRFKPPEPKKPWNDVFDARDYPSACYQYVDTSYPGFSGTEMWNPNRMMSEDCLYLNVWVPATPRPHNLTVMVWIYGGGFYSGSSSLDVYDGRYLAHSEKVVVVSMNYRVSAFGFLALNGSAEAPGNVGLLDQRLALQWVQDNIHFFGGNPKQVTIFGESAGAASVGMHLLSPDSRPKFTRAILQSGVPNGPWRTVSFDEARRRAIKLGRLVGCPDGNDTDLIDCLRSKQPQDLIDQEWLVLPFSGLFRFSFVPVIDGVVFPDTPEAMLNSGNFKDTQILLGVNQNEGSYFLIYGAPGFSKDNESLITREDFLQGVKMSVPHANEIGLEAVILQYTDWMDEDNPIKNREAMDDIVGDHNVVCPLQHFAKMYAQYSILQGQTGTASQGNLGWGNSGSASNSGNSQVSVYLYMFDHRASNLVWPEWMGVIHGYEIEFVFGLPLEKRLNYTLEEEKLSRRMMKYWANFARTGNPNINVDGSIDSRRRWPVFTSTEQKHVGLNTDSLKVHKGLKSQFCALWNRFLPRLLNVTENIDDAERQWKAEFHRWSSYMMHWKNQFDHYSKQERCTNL
pIC50: −log10 of the molar value.
readout_kind: pIC50

                                  mol_smiles  readout_value
 0  O=C1c2ccccc2C(=O)N1CCCCCCCCNC1CCN(Cc2ccccc2F)CC1           4.36
 1  Clc1cccc(CN2CCC(NCCCCCCCCn3ccc4ccccc43)CC2)c1           4.66
 2  O=C1c2ccccc2C(=O)N1CCCCCCNC1CCN(Cc2ccccc2)CC1           4.34
 3  c1ccc(CN2CCC(NCCCCCCCCn3ccc4ccccc43)CC2)cc1           4.15
 4  O=C1c2ccccc2C(=O)N1CCCCCCCCNC1CCN(Cc2ccccc2)CC1           4.75
 5  Fc1ccccc1CN1CCC(NCCCCCCn2ccc3ccccc32)CC1           4.38
 6  Fc1ccccc1CN1CCC(NCCCCCCCCn2ccc3ccccc32)CC1           4.53
 7  O=C1c2ccccc2C(=O)N1CCCCCCNC1CCN(Cc2cccc(Cl)c2)CC1           4.26
 8  O=C1c2ccccc2C(=O)N1CCCCCCNC1CCN(Cc2ccccc2F)CC1           4.07
 9  O=C1c2ccccc2C(=O)N1CCCCCNC1CCN(Cc2ccccc2)CC1           4.16
10  Clc1cccc(CN2CCC(NCCCCCCn3ccc4ccccc43)CC2)c1           4.27

---

pIC50: −log10 of the molar value.
These compounds were tested on Cholinesterase (Equus caballus, UniProt P81908); pIC50 is the recorded read-out.
Sequence (P81908 whole entry): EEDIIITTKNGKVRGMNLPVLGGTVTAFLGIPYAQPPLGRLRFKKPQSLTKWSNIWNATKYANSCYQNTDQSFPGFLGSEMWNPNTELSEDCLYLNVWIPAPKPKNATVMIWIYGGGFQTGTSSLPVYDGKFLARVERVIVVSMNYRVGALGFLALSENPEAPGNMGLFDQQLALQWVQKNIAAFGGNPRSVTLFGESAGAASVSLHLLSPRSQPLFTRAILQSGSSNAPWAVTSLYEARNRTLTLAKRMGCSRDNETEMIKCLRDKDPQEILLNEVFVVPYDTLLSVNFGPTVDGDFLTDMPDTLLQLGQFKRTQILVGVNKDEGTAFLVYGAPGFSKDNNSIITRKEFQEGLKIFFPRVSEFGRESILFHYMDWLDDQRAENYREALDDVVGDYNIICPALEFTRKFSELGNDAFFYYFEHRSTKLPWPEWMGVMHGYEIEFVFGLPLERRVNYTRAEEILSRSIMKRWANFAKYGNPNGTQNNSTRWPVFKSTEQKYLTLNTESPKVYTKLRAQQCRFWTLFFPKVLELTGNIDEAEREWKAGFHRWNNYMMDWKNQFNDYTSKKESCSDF
readout_kind: pIC50

In [3]: df
Out[3]:
                                 mol_smiles  readout_kind  readout_value
0  O=C1c2ccccc2C(=O)N1CCCCCCCCNC1CCN(Cc2ccccc2)CC1         pIC50           5.70
1  O=C1c2ccccc2C(=O)N1CCCCCCNC1CCN(Cc2ccc(O)cc2)CC1         pIC50           5.63
2  c1ccc(CN2CCC(NCCCCCCn3ccc4ccccc43)CC2)cc1         pIC50           4.82
3  O=C1c2ccccc2C(=O)N1CCCCCCCCNC1CCN(Cc2cccc(Cl)c2)CC1         pIC50           6.14
4  O=C1c2ccccc2C(=O)N1CCCNC1CCN(Cc2ccccc2F)CC1         pIC50           4.98

---

test_system: Cholinesterase (Equus caballus)
pIC50: −log10 of the molar value.
I would appreciate it if you labelled entries 1 when pIC50 is 6 or higher, otherwise -1.

>>> df
                                  mol_smiles  qualitative_label
 0  Fc1ccccc1CN1CCC(NCCCCCCn2ccc3ccccc32)CC1                 -1
 1  COc1ccc(CN2CCC(NCCCCCCn3ccc4ccccc43)CC2)cc1                  1
 2  COc1ccc(CN2CCC(NCCCN3C(=O)c4ccccc4C3=O)CC2)cc1                 -1
 3  Oc1ccc(CN2CCC(NCCCCCCn3ccc4ccccc43)CC2)cc1                 -1
 4  COc1ccc(CN2CCC(NCCCCCCCCn3ccc4ccccc43)CC2)cc1                  1
 5  O=C1c2ccccc2C(=O)N1CCCNC1CCN(Cc2ccc(O)cc2)CC1                 -1
 6  COc1ccc(CN2CCC(NCCCCCCN3C(=O)c4ccccc4C3=O)CC2)cc1                 -1
 7  c1ccc(CN2CCC(NCCCCCn3ccc4ccccc43)CC2)cc1                 -1
 8    c1ccc(CN2CCC(NCCCn3ccc4ccccc43)CC2)cc1                  1
 9  O=C1c2ccccc2C(=O)N1CCCNC1CCN(Cc2ccccc2)CC1                 -1
10  COc1ccc(CN2CCC(NCCCCCCCCN3C(=O)c4ccccc4C3=O)CC2)cc1                 -1
11  O=C1c2ccccc2C(=O)N1CCCCCCNC1CCN(Cc2ccccc2)CC1                 -1
12  O=C1c2ccccc2C(=O)N1CCCNC1CCN(Cc2cccc(Cl)c2)CC1                 -1
13  O=C1c2ccccc2C(=O)N1CCCCCCNC1CCN(Cc2cccc(Cl)c2)CC1                 -1
14  O=C1c2ccccc2C(=O)N1CCCCCCCCNC1CCN(Cc2ccccc2F)CC1                 -1
15  O=C1c2ccccc2C(=O)N1CCCCCCNC1CCN(Cc2ccccc2F)CC1                 -1

The origin of these recorded values is ChEMBL document CHEMBL3399932.
